Where do these numbers come from? They come from patent US9617221B2.

// values below are reported IL-10 by ELISA, % of solvent treated control
Test system: IL-10
Test: IL-10 production by LPS-stimulated murine peritoneal macrophage (ELISA)
Assay type: cell-based, mice
Settings: 50 μM inhibitor in medium; murine peritoneal macrophage
READOUT LABEL: IL-10 by ELISA, % of solvent treated control

# COMPOUND, OBSERVED VALUE
rows = [
    ("CC[C@H]1OC(=O)[C@H](C)[C@@H](O[C@H]2C[C@@](C)(OC)[C@@H](O)[C@H](C)O2)[C@H](C)[C@@H](O[C@@H]2O[C@H](C)C[C@H](N(C)CCCC(=O)OCC(O)CSc3nc(-c4ccc(F)cc4)c(-c4ccnc(NC(C)C)c4)[nH]3)[C@H]2O)[C@](C)(O)C[C@@H](C)CN(C)[C@H](C)[C@@H](O)[C@]1(C)O (some centres unmarked) [Compound 43f]", "27 % of solvent treated control"),
    ("CC[C@H]1OC(=O)[C@H](C)[C@@H](O[C@H]2C[C@@](C)(OC)[C@@H](O)[C@H](C)O2)[C@H](C)[C@@H](O[C@@H]2O[C@H](C)C[C@H](N(C)CCCC(=O)OCC(O)CSc3nc(-c4ccc(F)cc4)c(-c4ccnc(NC5CCOCC5)c4)[nH]3)[C@H]2O)[C@](C)(O)C[C@@H](C)CN(C)[C@H](C)[C@@H](O)[C@]1(C)O (some centres unmarked) [Compound 43b]", "−4 % of solvent treated control"),
]

----------
Test system: IL-10
Assay: IL-10 production by LPS-stimulated murine peritoneal macrophage (ELISA)
Format: cell-based, mice
Settings: 50 μM inhibitor in medium; murine peritoneal macrophage
// values below are reported IL-10 by ELISA, % of solvent treated control
READOUT LABEL: IL-10 by ELISA, % of solvent treated control

# COMPOUND, OBSERVED VALUE
data = [
    ("CCC(C)Nc1cc(-c2[nH]c(SCC(O)COC(=O)CCCN(C)[C@H]3C[C@@H](C)O[C@@H](O[C@@H]4[C@@H](C)[C@H](O[C@H]5C[C@@](C)(OC)[C@@H](O)[C@H](C)O5)[C@@H](C)C(=O)O[C@H](CC)[C@@](C)(O)[C@H](O)[C@@H](C)N(C)C[C@H](C)C[C@@]4(C)O)[C@@H]3O)nc2-c2ccc(F)cc2)ccn1 (some centres unmarked) [Compound 43d]", "−4 % of solvent treated control"),
    ("CC[C@H]1OC(=O)[C@H](C)[C@@H](O[C@H]2C[C@@](C)(OC)[C@@H](O)[C@H](C)O2)[C@H](C)[C@@H](O[C@@H]2O[C@H](C)C[C@H](N(C)CCCC(=O)OCC(O)CSc3nc(-c4ccc(F)cc4)c(-c4ccnc(NC(C)C(C)C)c4)[nH]3)[C@H]2O)[C@](C)(O)C[C@@H](C)CN(C)[C@H](C)[C@@H](O)[C@]1(C)O (some centres unmarked) [Compound 43a]", "5 % of solvent treated control"),
]
